# System: U2OS
# TEST: Multiplex assay against U2OS
# Assay type: toxicity, cell-based
# DETAILS: human, 48 h, 1 µM, compound concentration 1 uM, replicate 2
ENDPOINT_LABEL: Population Tubulin-Different-Phenotype (%)

Illustrative cases are given below, each with its answer.
Cc1nc2ccc(Oc3ccc(F)cc3)cc2c(=O)n1C[C@H]1CCCN(C(C)C)C1.Cl = 6%
CCCC(CCC)C(=O)O = 6%

# input for lookup
Name the reported Population Tubulin-Different-Phenotype (%) value associated with the compound "COc1cc(C(=O)N(CCCc2ccccc2)Cc2ccc(CC(=O)O)cc2)cc(OC)c1C" 6%

----------
# System: Fibroblast
# TEST: Multiplex assay against human fibroblast
# Type: toxicity, cell-based
# DETAILS: 12 h, 10 µM, compound concentration 10 uM, replicate 1
Would you mind telling me the reported Population Hoechst High Intensity Objects (%) of each entry?
Give bare numbers, in %.

Please state, for each entry, its recorded Population Hoechst High Intensity Objects (%).
1. CC(=O)NCCc1c(Cc2ccccc2)[nH]c2ccccc12
2. COc1cc(NC(=O)CCN2CCC(OC(=O)Nc3ccccc3-c3ccccc3)CC2)c(Cl)cc1CNC[C@H](O)c1ccc(O)c2[nH]c(=O)ccc12
3. CN1CCN(c2nc3cc(C(F)(F)F)ccc3n3cccc23)CC1.O=C(O)/C=C\C(=O)O.O=C(O)/C=C\C(=O)O
4. O=C(NCC(=O)N1CC[C@H](N[C@H]2CC[C@@](O)(c3ccc(-c4ncccn4)cn3)CC2)C1)c1cccc(C(F)(F)F)c1

1. 2
2. 2
3. 2
4. 2

----------
# Tested on: Fibroblast
# TEST: Multiplex assay against human fibroblast
# Format: toxicity, cell-based
# DETAILS: 12 h, 1 µM, compound concentration 1 uM, replicate 1
Would you mind telling me the reported Population Hoechst High Intensity Objects (%) of each entry?
Numbers only, in %.

Illustrative cases are given below, each with its answer.
COc1cc(C(=O)N(CCCc2ccccc2)Cc2ccc(CC(=O)O)cc2)cc(OC)c1C = 2
CC[C@H]1OC(=O)[C@H](C)[C@@H](O[C@H]2C[C@@](C)(OC)[C@@H](O)[C@H](C)O2)[C@H](C)[C@@H](O[C@@H]2O[C@H](C)C[C@H](N(C)C)[C@H]2O)[C@@]2(C)CC(C)=C(O2)[C@H](C)[C@@H](O)[C@]1(C)O = 2

Name the reported Population Hoechst High Intensity Objects (%) value associated with the compound CCCN1CCC[C@@H]2Cc3n[nH]cc3C[C@H]21.Cl [QUINPIROLE HYDROCHLORIDE] 2

----------
# Test system: HEK-293T
# TEST: Multiplex assay against HEK293T
# Assay type: toxicity, cell-based
# DETAILS: human, 12 h, 10 µM, compound concentration 10 uM, replicate 1
Returns Satisfied if the recorded Population Tubulin-Different-Phenotype (%) is greater than or equal to 60%, and Not satisfied otherwise.

Solved cases (5 shown):
CC[C@H]1OC(=O)[C@H](C)[C@@H](O[C@H]2C[C@@](C)(OC)[C@@H](O)[C@H](C)O2)[C@H](C)[C@@H](O[C@@H]2O[C@H](C)C[C@H](N(C)C)[C@H]2O)[C@@]2(C)CC(C)=C(O2)[C@H](C)[C@@H](O)[C@]1(C)O = Satisfied
CN1CCN(c2nc3cc(C(F)(F)F)ccc3n3cccc23)CC1.O=C(O)/C=C\C(=O)O.O=C(O)/C=C\C(=O)O = Satisfied
O=C1COc2nccc(-c3ccccc3F)c2CN1Cc1cc(C(F)(F)F)cc(C(F)(F)F)c1 = Satisfied
c1cc(OCCCN2CCCCC2)ccc1CN1CCCCC1 = Not satisfied
O=C(O)c1cc2ccccc2c(Cc2c(O)c(C(=O)O)cc3ccccc23)c1O = Not satisfied

Please check the record "COc1ccccc1N1CCN(CCCCNC(=O)c2ccc3ccccc3c2)CC1.Cl" and state if its Population Tubulin-Different-Phenotype (%) is at or above 60%. Satisfied

Try "CCNC1(C(N)=O)CCN(c2ncnc3c2nc(-c2ccccc2Cl)n3-c2ccc(Cl)cc2)CC1" next. Not satisfied

Try Cc1ccc(C(C)(O)c2nc3ccccc3s2)c(C)c1 (stereo not drawn) next. Not satisfied

These entries and their values trace back to ChEMBL document CHEMBL5058577.
